test system: OVCAR-4 ovarian; experiment: NCI tumour cell line growth inhibition, 48 h

[
  {
    "COMPOUND": "COc1ccc(OCC(=O)O)c2c1CCC(C)C2=O (stereo not given)",
    "TGI": "> 100 µM"
  },
  {
    "COMPOUND": "COc1ccc(Cn2c(=O)c(OS(=O)(=O)C(F)(F)F)c(C)c3cc4ccccc4cc32)cc1",
    "TGI": "> 100 µM"
  },
  {
    "COMPOUND": "CC(C)(O)c1cc(Nc2cc(Oc3cn(C4CC4)nc3C3CCOCC3)ccn2)ccn1",
    "TGI": "> 100 µM"
  },
  {
    "COMPOUND": "c1ccc(N2CCN(CCN3CCc4c([nH]c5ccccc45)C3c3cccnc3)CC2)cc1 (stereo not given)",
    "TGI": "> 100 µM"
  },
  {
    "COMPOUND": "C/C(=N\\NC(=S)N1CCCC1)c1ccccn1",
    "TGI": "2.3 µM"
  },
  {
    "COMPOUND": "Cc1c(C(=O)O)sc2nc[nH]c(=O)c12",
    "TGI": "> 100 µM"
  },
  {
    "COMPOUND": "CCOC1=C/C(=N\\Nc2ccc([N+](=O)[O-])cc2)CCC1",
    "TGI": "> 100 µM"
  },
  {
    "COMPOUND": "COc1ccc(N=C(C)C(C)=Nc2ccc(OC)cc2)cc1",
    "TGI": "> 100 µM"
  },
  {
    "COMPOUND": "Cc1oc(N)c(S(=O)(=O)/C(C#N)=C/c2ccccc2[N+](=O)[O-])c1C",
    "TGI": "> 100 µM"
  },
  {
    "COMPOUND": "Cn1cnnc1Sc1c([N+](=O)[O-])nc(-c2ccc([N+](=O)[O-])cc2)n1C",
    "TGI": "29.5 µM"
  },
  {
    "COMPOUND": "COc1ccc(-c2c(/C=N/OCC(=O)O)c3sc4ccccc4n3c2/C=N/OCC(=O)O)cc1",
    "TGI": "> 50 µM"
  },
  {
    "COMPOUND": "C[C@]12CCC3c4ccc(O)cc4CCC3C1CC[C@@H]2NC(=O)/C=C/c1ccc(O)c(O)c1 (stereo not given in full)",
    "TGI": "24.7 µM"
  },
  {
    "COMPOUND": "COc1cc(C=NCC(=O)CSC(c2ccccc2)c2ccccc2)ccc1O",
    "TGI": "23 µM"
  },
  {
    "COMPOUND": "CCCCn1c(-c2ccccc2)cs/c1=N\\NC(=O)Cn1c(C)nc2ccccc21",
    "TGI": "> 100 µM"
  },
  {
    "COMPOUND": "CN1Cc2ccccc2C2(COc3ccccc3C2=O)C1 (stereo not given)",
    "TGI": "> 100 µM"
  },
  {
    "COMPOUND": "C/C(=N\\Nc1nc2cc(F)ccc2s1)c1ccccn1",
    "TGI": "3.32 µM"
  },
  {
    "COMPOUND": "CCCCC[C@H]1C/C=C2/C(=O)C=C[C@@H]2C/C=C\\CCCC(=O)O1",
    "TGI": "5.94 µM"
  },
  {
    "COMPOUND": "O=C(NC1=C(Cl)C(=O)c2ccccc2C1=O)C(=O)c1c(O)c2ccccc2oc1=O",
    "TGI": "19.4 µM"
  },
  {
    "COMPOUND": "COC(=O)CCCc1nc2ccccc2nc1N=Nc1ccccc1",
    "TGI": "> 100 µM"
  },
  {
    "COMPOUND": "CCOC(=O)c1sc(NC(=O)COc2ccc(/C=C3\\CCc4cc(OC)ccc4C3=O)cc2)nc1C",
    "TGI": "27.7 µM"
  },
  {
    "COMPOUND": "C[C@@H]1CC2(C[C@@H](C)C3[C@@H](CC4(C)CCCC5C6=CC(O)(CC[C@]34C)OC6=CC(=O)OC5(C)C)O2)OC1=O (stereo not given in full)",
    "TGI": "> 100 µM"
  },
  {
    "COMPOUND": "Oc1ccc(Nc2nc(Cl)c3[nH]cnc3n2)cc1",
    "TGI": "> 100 µM"
  },
  {
    "COMPOUND": "Nc1ccccc1SC(/C=C/NNC1=NC(c2ccccc2)C(c2ccccc2)=NN1)c1ccccc1 (stereo not given)",
    "TGI": "28.7 µM"
  },
  {
    "COMPOUND": "Cc1cc(C)nc(NC(=O)COc2ccc(Cl)cc2)c1",
    "TGI": "> 100 µM"
  },
  {
    "COMPOUND": "Cc1ccc(N2Cc3c(ccc4ccccc34)OP2(=S)N2CCCC2)cc1 (stereo not given)",
    "TGI": "> 100 µM"
  }
]

###

List of TGI values.
system: IGROV1 ovarian; test: NCI tumour cell line growth inhibition, 48 h

[
  {
    "COMPOUND": "COc1c(OC2OC(C)C(O)C(O)C2O)c(OC)c2oc(-c3ccc(O)cc3)cc(=O)c2c1O (stereo not given)",
    "TGI": "92.2 µM"
  },
  {
    "COMPOUND": "COc1ccc(C2C3=C(COC3=O)Oc3cc4c(cc32)OCO4)cc1OC (stereo not given)",
    "TGI": "> 100 µM"
  },
  {
    "COMPOUND": "CCNC1CC(n2cc(C)c(=O)[nH]c2=O)OC1CO (stereo not given)",
    "TGI": "> 100 µM"
  },
  {
    "COMPOUND": "O=C1CC(c2cccc([N+](=O)[O-])c2)C2(C(=O)NC(=S)NC2=O)C(c2cccc([N+](=O)[O-])c2)C1 (stereo not given)",
    "TGI": "> 100 µM"
  },
  {
    "COMPOUND": "NCCOCCOCC(=O)O",
    "TGI": "> 100 µM"
  }
]

###

List of TGI values.
tested on: HCT-15 colon; test: NCI tumour cell line growth inhibition, 48 h
READOUT_LABEL: TGI

[
  {
    "MOLECULE": "COc1ccc(C2=NNC(c3sc(Cl)nc3Cl)C2)cc1 (stereo unspecified)",
    "ASSAY_RESULT": "19.3 µM"
  },
  {
    "MOLECULE": "C/C(=N\\Nc1nc2cc(F)ccc2s1)c1ccccn1",
    "ASSAY_RESULT": "2.12 µM"
  },
  {
    "MOLECULE": "CN(Cc1cnc2nc(N)nc(N)c2n1)c1c(Cl)cc(C(=O)NC(CCC(=O)O)C(=O)O)cc1Cl (stereo unspecified)",
    "ASSAY_RESULT": "> 100 µM"
  },
  {
    "MOLECULE": "C/C(=C\\c1ccccc1)C(=O)c1c(C)cc(C)cc1C",
    "ASSAY_RESULT": "> 100 µM"
  },
  {
    "MOLECULE": "COc1cccc(C2C(C#N)=C(N)Oc3cc(OCCCCCC[P+](c4ccccc4)(c4ccccc4)c4ccccc4)ccc32)c1 (stereo unspecified)",
    "ASSAY_RESULT": "6.14 µM"
  },
  {
    "MOLECULE": "C=C(c1ccccc1)c1cc2c(=O)[nH]ccc2n1C",
    "ASSAY_RESULT": "> 100 µM"
  },
  {
    "MOLECULE": "CCNC(=O)COc1ccc(Cl)c(C)c1",
    "ASSAY_RESULT": "> 100 µM"
  },
  {
    "MOLECULE": "Oc1ccc(Nc2nc(Cl)c3[nH]cnc3n2)cc1",
    "ASSAY_RESULT": "> 100 µM"
  },
  {
    "MOLECULE": "CC(C)(C1=NC(C(C)(C)C)CO1)C1=N[C@@H](C(C)(C)C)CO1 (stereo partly specified)",
    "ASSAY_RESULT": "> 100 µM"
  },
  {
    "MOLECULE": "COC(=O)c1c(C(=O)O)c(-c2ccccc2)c(-c2ccccc2)c(-c2ccccc2)c1-c1ccccc1",
    "ASSAY_RESULT": "> 100 µM"
  },
  {
    "MOLECULE": "CC(C)(C)OC(=O)NCCCCCCCCCCCCn1c2c(c3ccccc3c1=O)C(=O)c1ccccc1-2",
    "ASSAY_RESULT": "> 100 µM"
  }
]

###

tested on: 786-0 renal; assay: NCI tumour cell line growth inhibition, 48 h
READOUT_LABEL: TGI

[
  {
    "MOLECULE": "CCOC(=O)/C=C(/C(=O)OCC)n1cc(C)c(=O)n(Cc2cn(CCCCOC(C)=O)nn2)c1=O",
    "ASSAY_RESULT": "> 100 µM"
  },
  {
    "MOLECULE": "CSC(=S)NCc1cn(C)c2ccccc12",
    "ASSAY_RESULT": "> 100 µM"
  },
  {
    "MOLECULE": "COC(=O)[C@@H]1C=CCN1S(=O)(=O)c1ccc(C)cc1",
    "ASSAY_RESULT": "> 100 µM"
  },
  {
    "MOLECULE": "COc1c(OC2OC(C)C(O)C(O)C2O)c(OC)c2oc(-c3ccc(O)cc3)cc(=O)c2c1O (stereo not given)",
    "ASSAY_RESULT": "> 100 µM"
  },
  {
    "MOLECULE": "Cc1c(C(=O)O)sc2nc[nH]c(=O)c12",
    "ASSAY_RESULT": "> 100 µM"
  }
]
